method: Hemolytic activity in human red blood cells assessed as hemolysis incubated for 1 hr
Type: toxicity, cell-based, Erythrocyte
Listing: HC50 at 1 h of selected molecules

QUERY: Could you tell me which HC50 at 1 h is on file for "CC[C@H](C)[C@H](N)C(=O)N[C@H](C(=O)N[C@H](CCCNC(=N)N)C(=O)N[C@@H](CCCNC(=N)N)C(=O)N[C@@H](Cc1c[nH]cn1)C(=O)N[C@H](C(=O)N[C@H](C(=O)N[C@H](C(=O)N[C@H](C(=O)N[C@H](CCCNC(=N)N)C(=O)N[C@@H](CCCNC(=N)N)C(=O)N[C@@H](Cc1c[nH]cn1)C(=O)N[C@H](C(=O)N[C@H](C(N)=O)[C@@H](C)CC)[C@@H](C)CC)[C@@H](C)CC)[C@@H](C)CC)[C@@H](C)CC)[C@@H](C)CC)[C@@H](C)CC" ?
RESULT: > 512 µM

QUERY: Could you tell me which HC50 at 1 h is on file for "CC(C)[C@H](N)C(=O)N[C@H](C(=O)N[C@H](CCCNC(=N)N)C(=O)N[C@@H](CCCNC(=N)N)C(=O)N[C@@H](Cc1c[nH]cn1)C(=O)N[C@H](C(=O)N[C@H](C(=O)N[C@H](C(=O)N[C@H](C(=O)N[C@H](CCCNC(=N)N)C(=O)N[C@@H](CCCNC(=N)N)C(=O)N[C@@H](Cc1c[nH]cn1)C(=O)N[C@H](C(=O)N[C@H](C(N)=O)C(C)C)C(C)C)C(C)C)C(C)C)C(C)C)C(C)C)C(C)C" ?
RESULT: > 512 µM

QUERY: Could you tell me which HC50 at 1 h is on file for "CC[C@H](C)[C@H](N)C(=O)N[C@H](C(=O)N[C@H](CCCNC(=N)N)C(=O)N[C@@H](CCCNC(=N)N)C(=O)N[C@@H](Cc1c[nH]cn1)C(=O)N[C@H](C(=O)N[C@H](C(N)=O)[C@@H](C)CC)[C@@H](C)CC)[C@@H](C)CC" ?
RESULT: > 512 µM

QUERY: Could you tell me which HC50 at 1 h is on file for "CC(C)[C@H](N)C(=O)N[C@H](C(=O)N[C@H](CCCNC(=N)N)C(=O)N[C@@H](CCCNC(=N)N)C(=O)N[C@@H](Cc1c[nH]cn1)C(=O)N[C@H](C(=O)N[C@H](C(N)=O)C(C)C)C(C)C)C(C)C" ?
RESULT: > 512 µM

* * *

Listing: MIC95 of selected molecules
Tested on: Candida albicans
method: Antifungal activity against Candida albicans CGMCC 2.2086 assessed as inhibition of fungal growth incubated for 48 hrs in presence of NH4Cl
Type: functional
Express it in µM; write the number only.

| query.smiles | MIC95 (µM) |
| --- | --- |
| CC[C@H](C)[C@H](N)C(=O)N[C@H](C(=O)N[C@H](CCCNC(=N)N)C(=O)N[C@@H](CCCNC(=N)N)C(=O)N[C@@H](Cc1c[nH]cn1)C(=O)N[C@H](C(=O)N[C@H](C(=O)N[C@H](C(=O)N[C@H](C(=O)N[C@H](CCCNC(=N)N)C(=O)N[C@@H](CCCNC(=N)N)C(=O)N[C@@H](Cc1c[nH]cn1)C(=O)N[C@H](C(=O)N[C@H](C(N)=O)[C@@H](C)CC)[C@@H](C)CC)[C@@H](C)CC)[C@@H](C)CC)[C@@H](C)CC)[C@@H](C)CC)[C@@H](C)CC | 32 |

QUERY: Could you tell me which MIC95 is on file for "CC(C)[C@H](N)C(=O)N[C@H](C(=O)N[C@H](CCCNC(=N)N)C(=O)N[C@@H](CCCNC(=N)N)C(=O)N[C@@H](Cc1c[nH]cn1)C(=O)N[C@H](C(=O)N[C@H](C(=O)N[C@H](C(=O)N[C@H](C(=O)N[C@H](CCCNC(=N)N)C(=O)N[C@@H](CCCNC(=N)N)C(=O)N[C@@H](Cc1c[nH]cn1)C(=O)N[C@H](C(=O)N[C@H](C(N)=O)C(C)C)C(C)C)C(C)C)C(C)C)C(C)C)C(C)C)C(C)C" ?
RESULT: 64
